Recorded values, source paper PMC6934550.

Run description: in vivo
Conditions used: both, rhesus monkey, po, 40 mg/kg, elimination phase half-life (t1/2), range among individual animals
Where a name gives a salt, the structure may show the parent alone.
Please respond with reported half-life for every item in the list.

- Compound: "CCN(CC)Cc1cc(Nc2ccnc3cc(Cl)ccc23)ccc1O [Amodiaquine dihydrochloride hydrate, amodiaquine dihydrochloride dihydrate]"
  half-life: "3 to 28 h"

In the following, a different compound is considered.
Input line: Which half-life is listed for CCNCc1cc(Nc2ccnc3cc(Cl)ccc23)ccc1O [N-Desethylamodiaquine hydrochloride, N-desethylamodiaquine hydrochloride] ?
Output line: 12 to 51 h

====

Run description: in vivo
Conditions used: both, rhesus monkey, po, 20 mg/kg, t1/2, mean
Structures can show the parent of a compound that is named as a salt.
Endpoint name: half-life (h)
One number for each entry, in h.

Input line: Which half-life is listed for CCNCc1cc(Nc2ccnc3cc(Cl)ccc23)ccc1O [N-Desethylamodiaquine hydrochloride, N-desethylamodiaquine hydrochloride] ?
Output line: 15.6

====

Run description: in vivo
Conditions used: both, rhesus monkey, po, 40 mg/kg, Cmax, mean
Structures can show the parent of a compound that is named as a salt.
Endpoint name: Cmax
Your reply should be a number followed by the unit it is expressed in.

- Compound: "CCNCc1cc(Nc2ccnc3cc(Cl)ccc23)ccc1O [N-Desethylamodiaquine hydrochloride, N-desethylamodiaquine hydrochloride]"
  Endpoint name: "Cmax"
  Observed value: "618 ng/mL"

Input line: Which Cmax is listed for CCN(CC)Cc1cc(Nc2ccnc3cc(Cl)ccc23)ccc1O [Amodiaquine dihydrochloride hydrate, amodiaquine dihydrochloride dihydrate] ?
Output line: 53.7 ng/mL

====

Test system: EBOV (Makona variant, EBOV/Mak)
Type: cell-based, Ebola virus
Conditions used: read-out: IC50
Endpoint name: IC50 (µM)
Answers are plain numbers, in µM.

Input line: Which IC50 is listed for C[C@H]1[C@H](OC(=O)CCC(=O)O)O[C@@H]2O[C@@]3(C)CC[C@H]4[C@H](C)CC[C@@H]1[C@@]24OO3 [Artesunate, artesunate] ?
Output line: 17.2

====

Run description: in vitro
Conditions used: African green monkey
Counter-ions that a name gives are not always drawn.
Endpoint name: CC50 (µM)
Numbers only, in µM.

- Compound: "CCNCc1cc(Nc2ccnc3cc(Cl)ccc23)ccc1O [N-Desethylamodiaquine hydrochloride, N-desethylamodiaquine hydrochloride]"
  CC50, µM: 33.1

In the following, a different compound is considered.
Input line: Which CC50 is listed for CCN(CC)Cc1cc(Nc2ccnc3cc(Cl)ccc23)ccc1O [Amodiaquine dihydrochloride hydrate, amodiaquine dihydrochloride dihydrate] ?
Output line: 40.1

====

Run description: in vivo
Conditions used: both, rhesus monkey, po, 40 mg/kg, AUCinf, mean
Counter-ions that a name gives are not always drawn.
Endpoint name: AUC(0-inf) (ng·h/mL)
Give bare numbers, in ng·h/mL.

Input line: Which AUC(0-inf) is listed for CCN(CC)Cc1cc(Nc2ccnc3cc(Cl)ccc23)ccc1O [Amodiaquine dihydrochloride hydrate, amodiaquine dihydrochloride dihydrate] ?
Output line: 324

====

Run description: in vivo
Conditions used: both, rhesus monkey, po, 40 mg/kg, Tmax (range)
Structures can show the parent of a compound that is named as a salt.
Please respond with reported Tmax for every item in the list.

- Molecule: "CCN(CC)Cc1cc(Nc2ccnc3cc(Cl)ccc23)ccc1O [Amodiaquine dihydrochloride hydrate, amodiaquine dihydrochloride dihydrate]"
  Tmax: "0.5 to 8 h"

Input line: Which Tmax is listed for CCNCc1cc(Nc2ccnc3cc(Cl)ccc23)ccc1O [N-Desethylamodiaquine hydrochloride, N-desethylamodiaquine hydrochloride] ?
Output line: 0.5 to 8 h
